All values here come from ChEMBL document CHEMBL2057142.

biological target: Long-chain fatty acid transport protein 1 (Homo sapiens, UniProt Q6PCB7); assay: Inhibition of human recombinant FATP1 acyl-coA synthetase activity using [14C]oleic acid as substrate
Sequence (Q6PCB7 whole entry): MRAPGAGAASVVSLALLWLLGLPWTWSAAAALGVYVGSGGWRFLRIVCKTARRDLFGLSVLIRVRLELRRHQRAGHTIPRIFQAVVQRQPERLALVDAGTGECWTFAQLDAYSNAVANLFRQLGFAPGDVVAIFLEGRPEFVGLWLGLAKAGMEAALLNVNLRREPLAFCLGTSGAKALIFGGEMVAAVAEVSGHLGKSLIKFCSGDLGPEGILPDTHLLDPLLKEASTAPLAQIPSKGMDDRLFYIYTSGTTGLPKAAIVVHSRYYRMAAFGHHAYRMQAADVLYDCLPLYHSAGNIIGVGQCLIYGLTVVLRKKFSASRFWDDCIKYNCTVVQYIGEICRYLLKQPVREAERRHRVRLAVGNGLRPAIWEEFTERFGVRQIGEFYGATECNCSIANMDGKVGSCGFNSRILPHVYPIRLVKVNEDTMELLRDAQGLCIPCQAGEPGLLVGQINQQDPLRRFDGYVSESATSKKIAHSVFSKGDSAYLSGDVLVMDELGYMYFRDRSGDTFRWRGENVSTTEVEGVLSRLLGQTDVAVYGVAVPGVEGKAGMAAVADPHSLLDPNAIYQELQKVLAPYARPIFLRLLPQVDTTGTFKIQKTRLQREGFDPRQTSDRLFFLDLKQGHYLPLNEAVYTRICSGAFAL
Exercise: for every item that follows, state its recorded pIC50.
pIC50 here: minus log base 10 of the concentration, concentration in moles per litre.

Can you look up pIC50 on Long-chain fatty acid transport protein 1 (Homo sapiens, UniProt Q6PCB7) for CCC(=O)c1ccc(N(C)C(=O)CSc2nnc(CNc3ccccc3)n2CC)cc1 ?
6.24

Request body: readout pIC50, system Long-chain fatty acid transport protein 1 (Homo sapiens, UniProt Q6PCB7), query CCC(=O)c1ccc(NC(=O)CSc2nnc(CNc3ccccc3)n2CC)cc1 . Return the value.
6.40

Find the measured pIC50: item CCn1c(CNc2ccccc2)nnc1SCc1nc2cc(OC(F)(F)F)ccc2o1 , target or system Long-chain fatty acid transport protein 1 (Homo sapiens, UniProt Q6PCB7).
7.00

Tell me reported pIC50 for CC/C(=N/O)c1ccc2oc(CSc3nnc(CNc4ccccc4)n3CC)nc2c1 , tested with Long-chain fatty acid transport protein 1 (Homo sapiens, UniProt Q6PCB7).
6.59

Lab request: please report pIC50 under test system Long-chain fatty acid transport protein 1 (Homo sapiens, UniProt Q6PCB7) for CCn1c(CNc2ccccc2)nnc1SCC(=O)Nc1ccc(C(=O)OC)cc1
6.27

* * *

experiment: Clearance in rat at 1 mg/kg, iv; assay type: ADME, organism-based; parameters: dose 1 mg/kg, route intravenous; conditions: in vivo
REPORTED METRIC: clearance (mL/min/kg)
The answer is to be given in mL/min/kg; state only the numeric part.

Please report the recorded clearance for CCC(=O)c1ccc2oc(CSc3nnc(CNc4ccccc4)n3CC)nc2c1 .
378

Fill in: clearance of CCn1c(CNc2ccccc2)nnc1SCc1nc2cc(OC(F)(F)F)ccc2o1 is ___
52

Item under review: CCn1c(CNc2ccccc2)nnc1SCc1nc2cc(C(F)(F)F)ccc2o1 . Reported clearance?
56

* * *

experiment: Tmax in rat at 10 mg/kg, po; format: ADME, organism-based; design: dose 10 mg/kg, route oral; conditions: in vivo
REPORTED METRIC: Tmax (min)
Write down the numeric answer in min and omit the unit.

Please give the measured Tmax for this compound: CCn1c(CNc2ccccc2)nnc1SCc1nc2cc(C(F)(F)F)ccc2o1
19.8

Which Tmax is listed for CCn1c(CNc2ccccc2)nnc1SCc1nc2cc(OC(F)(F)F)ccc2o1 ?
19.8

* * *

biological target: UniProtKB Q60714; test: Inhibition of mouse recombinant FATP1 acyl-coA synthetase activity using [14C]oleic acid as substrate
Please provide measured IC50 for the entries that follow.

For the compound shown here, CCn1c(CNc2ccccc2)nnc1SCC(=O)Nc1ccc(C(=O)c2ccccc2)cc1 , give the reported IC50.
> 10 µM

Which IC50 value is on record for CCC(=O)c1ccc(N(CC)C(=O)CSc2nnc(CNc3ccccc3)n2CC)cc1 ?
> 10 µM

# query: IC50 of entry CCn1c(CNc2ccccc2)nnc1SCC(=O)Nc1ccc(OC)cc1
> 10 µM

GET /values?readout=IC50&item= CCn1c(CNc2ccccc2)nnc1SCC(=O)Nc1ccc(S(C)(=O)=O)cc1
> 10 µM

Sample CCn1c(CNc2ccccc2)nnc1SCc1nc2ccc(Cl)cc2o1 — what was its IC50?
5.4 µM

* * *

molecular target: Long-chain fatty acid transport protein 1 (Mus musculus); test: Inhibition of mouse recombinant FATP1 acyl-coA synthetase activity using [14C]oleic acid as substrate
Sequence (Q60714 whole entry): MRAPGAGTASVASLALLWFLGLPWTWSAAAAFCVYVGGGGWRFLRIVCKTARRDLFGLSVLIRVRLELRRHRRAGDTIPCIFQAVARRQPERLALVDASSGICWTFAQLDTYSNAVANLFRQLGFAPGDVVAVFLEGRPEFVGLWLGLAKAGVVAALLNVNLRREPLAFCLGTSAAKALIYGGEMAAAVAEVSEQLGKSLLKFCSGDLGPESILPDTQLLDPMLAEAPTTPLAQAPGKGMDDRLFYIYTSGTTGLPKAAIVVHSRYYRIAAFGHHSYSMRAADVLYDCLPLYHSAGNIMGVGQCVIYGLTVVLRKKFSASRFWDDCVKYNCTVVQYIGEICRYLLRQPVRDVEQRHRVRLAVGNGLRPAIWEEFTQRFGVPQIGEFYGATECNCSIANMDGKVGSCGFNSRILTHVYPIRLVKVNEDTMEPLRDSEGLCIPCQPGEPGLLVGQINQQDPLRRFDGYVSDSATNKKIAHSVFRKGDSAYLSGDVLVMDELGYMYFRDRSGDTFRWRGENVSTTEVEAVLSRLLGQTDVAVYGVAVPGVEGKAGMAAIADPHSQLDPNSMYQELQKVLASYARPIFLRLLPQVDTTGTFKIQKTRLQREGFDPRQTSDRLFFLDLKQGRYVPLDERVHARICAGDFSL
Could you please report measured IC50 for the items listed next?
Provide the reading as a plain figure in nM.

Entry CCCC(=O)c1ccc(NC(=O)CSc2nnc(CNc3ccccc3)n2CC)cc1 has what IC50?
1100

Which IC50 value belongs to CCC(=O)c1ccc2oc(CSc3nnc(CNc4ccccc4)n3CC)nc2c1 ?
360

# input compound: CCn1c(CNc2ccccc2)nnc1SCc1nc2cc(C(=O)C(C)C)ccc2o1 ; wanted: its IC50
520

State the recorded IC50 for this entry: CCC(=O)c1ccc2nc(CSc3nnc(CNc4ccccc4)n3CC)oc2c1
1200
